# System: human T-lymphocyte cells (Molt4/C8)
# METHOD DESCRIPTION: Cytostatic assay, inhibition of tumor cell proliferation
# Format: cell-based
# EXPERIMENTAL SETUP: Molt4/C8, read-out: IC50 (50% inhibitory concentration, tumor cell proliferation)
pIC50: −log10 of the molar value.
MEASURED ENDPOINT: pIC50

                                   molecule  assay_value
0  Nc1ccn([C@@H]2O[C@H](CO)[C@@H](O)[C@H](F)[C@H]2O)c(=O)n1 [3f]         3.79
1  Nc1ncnc2c1ncn2[C@@H]1O[C@H](CO)[C@@H](O)[C@H](F)[C@H]1O [3g]         3.74
